# Experiment: Quantitative high throughput screen for delayed death inhibitors of the malarial parasite plastid, 96 hour incubation (AID 488745); note: nearly all actives have a fitted effect of over 70% in size
# Experimental Conditions: Plasmodium falciparum growth; series mostly up to 28.7 µM
Inconclusive results are not listed. Activity calls are given as the source filed them. Calls come from the whole dose curve; as a rule, active = well fitted inhibition curve with a large enough effect; inconclusive = small, poorly fitted or top-dose-only effect, or effect the other way; inactive = no such curve, though single readings can be large or run the other way.
I would appreciate it if you answered using one of these outcomes: active, inactive

Some solved cases for reference:
>  <Compound>
NS(=O)(=O)c1cccc2c1c([N+](=O)[O-])cc1nc(O)c(O)nc12

>  <Label Value>
inactive

$$$$
>  <Compound>
CN1CCCC1CCOC(C)(c1ccccc1)c1ccc(Cl)cc1 (stereo not given)

>  <Label Value>
active

$$$$
>  <Compound>
C#CC(N)CCC(=O)O (stereo not given)

>  <Label Value>
inactive

$$$$
>  <Compound>
CCCCCCN(CCCCCC)C(=O)Cc1c(-c2ccc(F)cc2)[nH]c2ccccc12

>  <Label Value>
active

$$$$

Could you now look at the following compound, please?
# input Could you check what this test reported for O=c1cc(-c2ccccc2)[nH]c2nc(Cl)ccc12 ?
# output inactive

---

# Assayed System: Peptidyl-prolyl cis-trans isomerase NIMA-interacting 1 (Homo sapiens) (UniProt Q13526)
# Sequence (Q13526 whole entry, looked up): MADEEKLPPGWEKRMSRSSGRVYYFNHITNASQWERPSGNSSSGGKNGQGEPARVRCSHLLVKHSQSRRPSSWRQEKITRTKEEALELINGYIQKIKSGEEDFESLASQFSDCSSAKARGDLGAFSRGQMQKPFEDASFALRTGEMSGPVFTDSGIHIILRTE
# Experiment: qHTS Validation Assay to Find Inhibitors of Pin1 (AID 504536)
# Experimental Conditions: Pin1 fluorescence polarization peptide binding assay; series mostly up to 57.5 µM
Results filed as inconclusive are left out. Activity calls are given as the source filed them. Calls follow the shape of the dose curve; as a rule, active = well fitted inhibition curve with a large enough effect in the polarisation, with a control signal flat (not every such curve was filed as active); inconclusive = small, poorly fitted or top-dose-only effect, or effect the other way; inactive = flat fitted curve, though single readings scatter; the % refers to the polarisation.
Outcome field: choose from yes (1) for active, no (0) for inactive

# input Please indicate how the test categorized COc1ccccc1N1CCN(CCCCNC(=O)c2ccc3ccccc3c2)CC1 .
# output no (0)

# input Look up the recorded call for COc1ccc(CCN(C)CCc2ccc(OC)c(OC)c2)cc1OC in this test.
# output no (0)

# input Called result for CC(O)C(O)[C@H]1CNc2nc(N)[nH]c(=O)c2N1 (stereo partly drawn)
# output no (0)

# input What did this assay record as the result for N#Cc1cc([N+](=O)[O-])c2sc(C(N)=O)[n+]([O-])c2c1 ?
# output no (0)

# input Outcome logged for COc1cc(/C=C(\C#N)C(=O)Nc2nnc(C(F)(F)F)s2)ccc1OCc1ccc(C(F)(F)F)cc1C(F)(F)F in this assay:
# output yes (1)

# input Answer briefly: the call reported for O=c1onc2n1-c1cc(Br)ccc1OC2 in this assay.
# output no (0)

# input Give the logged outcome of this assay for the following molecule: CC1CCN=C(N)S1 (stereo not drawn)
# output no (0)

# input Test call for this molecule, please: CC(=O)[C@H]1CCC2C3CC=C4C[C@@H](OS(=O)(=O)O)CC[C@]4(C)C3CC[C@@]21C (stereo partly drawn)
# output no (0)

---

# Experiment: qHTS for differential inhibitors of proliferation of Plasmodium falciparum line 7G8 (AID 1815);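 note: parasite growth measured after three days of incubation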
# Experimental Conditions: Plasmodium falciparum 7G8 proliferation inhibition; series mostly up to 28.7 µM
Results filed as inconclusive are left out. Calls of active or inactive are those of the source. The call rests on the fitted dose curve; in most records, active means well fitted curve in the direction sought with a large enough effect; inconclusive means small, poorly fitted or top-dose-only effect, or another doubt; inactive means no such curve, though single readings can be large or run the other way.
Give one outcome, nothing more. List: active, inactive

>  <Compound>
O=C(O)c1cccnc1C(=O)O

>  <Label Value>
inactive

$$$$
>  <Compound>
COc1ccc2c(c1)c(CC(=O)O)c(C)n2C(=O)c1ccccc1

>  <Label Value>
inactive

$$$$
>  <Compound>
Cc1nc(N=Nc2ccc(C(=O)O)cc2)c(COP(=O)(O)O)c(C=O)c1O

>  <Label Value>
inactive

$$$$
>  <Compound>
CCCn1c(=O)c2[nH]c(-c3ccc(S(=O)(=O)O)cc3)nc2n(CCC)c1=O

>  <Label Value>
inactive

$$$$
>  <Compound>
NC1(C(=O)O)CCc2cc(C(=O)O)ccc21 (centres undefined)

>  <Label Value>
inactive

$$$$

# input Please share the test call associated with OCC1NCC(O)C(O)C1O (centres undefined) .
# output inactive

# input GET /call?item= NC(C(=O)N[C@@H]1C(=O)N2C(C(=O)O)=C(Cl)CS[C@H]12)c1ccccc1 (some centres undefined) returns the recorded outcome of this test.
# output inactive

# input # lookup: test call for NC1C=CC=C(C(=O)O)C1 (centres undefined)
# output inactive

# input Outcome logged for Nn1nnc2ccccc21 in this assay:
# output active

# input Per the records of this test, what outcome belongs to N[C@@H](Cc1ccc(F)cc1)C(=O)O ?
# output active

# input Check the results log: what was the call for Nc1ncnc2c1c(-c1ccc(Oc3ccccc3)cc1)cn2C1CCCC1 ?
# output active

---

# Assayed System: Papain (Carica papaya) (UniProt P00784)
# Sequence (P00784 whole entry, looked up): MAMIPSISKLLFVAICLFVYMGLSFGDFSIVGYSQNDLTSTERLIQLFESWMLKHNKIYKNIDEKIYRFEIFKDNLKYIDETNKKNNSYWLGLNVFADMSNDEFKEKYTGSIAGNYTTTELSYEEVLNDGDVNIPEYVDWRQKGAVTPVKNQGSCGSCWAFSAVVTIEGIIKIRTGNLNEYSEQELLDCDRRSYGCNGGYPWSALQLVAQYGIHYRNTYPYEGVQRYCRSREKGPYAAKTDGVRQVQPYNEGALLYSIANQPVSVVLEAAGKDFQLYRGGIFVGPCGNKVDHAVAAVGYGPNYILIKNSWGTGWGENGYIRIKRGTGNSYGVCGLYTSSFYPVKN
# Experiment: Primary qHTS assay for inhibitors of the protease papain (AID 1645873);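 note: papain turnover of Z-FR-AMC read as the AMC fluorescence gain over 10 min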
# Experimental Conditions: papain Z-FR-AMC cleavage, AMC fluorescence; series mostly up to 49.8 µM
Inconclusive results are not listed. Calls of active or inactive are those of the source. Calls come from the whole dose curve; as a rule, active = well fitted inhibition curve with a large enough effect; inconclusive = small, poorly fitted or top-dose-only effect; inactive = no such curve, though single readings can be large or run the other way.
Parameter call: string, one of active, inactive

Use the examples below as a reference point.
>  <Compound>
O=c1ccn([C@@H]2O[C@H](COP(=O)(O)OP(=O)(O)O)[C@@H](O)[C@H]2O)c(=O)[nH]1

>  <Label Value>
inactive

$$$$
>  <Compound>
C=C1C(=O)O[C@@H]2[C@H]3O[C@]3(C)CCC=C(C)CC[C@@H]12

>  <Label Value>
inactive

$$$$
>  <Compound>
Nc1nc2[nH]c(=O)cnc2c(=O)[nH]1

>  <Label Value>
inactive

$$$$
>  <Compound>
CN1CC(O)C(O)C(O)C1CO (configuration not stated)

>  <Label Value>
inactive

$$$$
>  <Compound>
NC1(C(=O)O)CC1

>  <Label Value>
inactive

$$$$
>  <Compound>
N#C/C(=C\c1ccc(O)c(O)c1)C(=O)NCCCNC(=O)/C(C#N)=C/c1ccc(O)c(O)c1

>  <Label Value>
active

$$$$

Continue with the compound presented below.
# input Each compound tested received a call. Report the one for CCCCCC[C@@H]([C@@H](C)O)n1cnc2c(N)ncnc21 .
# output inactive

---

# Experiment: qHTS Assay for Lipid Storage Modulators (AID 1519)
# Experimental Conditions: Drosophila S3 cells, BODIPY lipid droplet/cell ratio, laser cytometry; measured here: cell count channel max response; cells loaded with oleic acid
Results filed as inconclusive are left out.
Measurement Kind: max response (%)
The response must be a number in % with no trailing unit.

Worked examples follow.
>  <Compound>
CN1CCN(c2nc3cc(C(F)(F)F)ccc3n3cccc23)CC1

>  <Measurement Units>
%

>  <Observed Measurement>
18.9

$$$$
>  <Compound>
OC[C@H]1O[C@@H](n2cnc3cncnc32)[C@H](O)[C@@H]1O

>  <Measurement Units>
%

>  <Observed Measurement>
0.328

$$$$
>  <Compound>
NC1C=CC=C(C(=O)O)C1 (centres undefined)

>  <Measurement Units>
%

>  <Observed Measurement>
4.79

$$$$
>  <Compound>
CN1CCc2cc(Cl)c(O)cc2[C@@H](c2ccccc2)C1

>  <Measurement Units>
%

>  <Observed Measurement>
25.8

$$$$
>  <Compound>
CC1CNCCN1S(=O)(=O)c1cccc2cnccc12 (centres undefined)

>  <Measurement Units>
%

>  <Observed Measurement>
3.07

$$$$

# input Any idea what max response was measured for CC(=O)/C(C)=N/O ?
# output 5.13

# input Would you mind telling me what max response value was observed for CCCCCCC/C=C\CCCCCCCCC(=O)O ?
# output -11.1

# input Which measured max response value corresponds to Cn1c(=O)[nH]c2ncn(C)c2c1=O ?
# output 10.7

# input Fill in the blank: the reported max response of Nc1ncnc2c1ncn2C1CCCO1 (centres undefined) is ____.
# output 24.9

---

# Assayed System: Thyrotropin-releasing hormone receptor (Homo sapiens)
# Experiment: qHTS for Small Molecule Agonists and Allosteric Enhancers of Human TRH Receptor: Validation Screen for Agonists (AID 493127);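 note: intracellular calcium rise by fluo-8 fluorescence before TRH EC20 addition; 0% is about no effect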
# Experimental Conditions: TRH receptor agonist cell assay; at 2 µM; stronger effect = higher value
Measurement Kind: activation (%)
Reply numerically in %, unit not repeated.

Some entries whose results are on file:
>  <Compound>
NS(=O)(=O)c1cccc2c1c([N+](=O)[O-])cc1nc(O)c(O)nc12

>  <Assayed System>
Thyrotropin-releasing hormone receptor (Homo sapiens)

>  <Observed Measurement>
0.875

$$$$
>  <Compound>
COC(=O)C(C)(N)Cc1ccc(O)cc1 (stereo unspecified)

>  <Assayed System>
Thyrotropin-releasing hormone receptor (Homo sapiens)

>  <Observed Measurement>
0.125

$$$$
>  <Compound>
O=C(O)C1CCCNC1 (stereo unspecified)

>  <Assayed System>
Thyrotropin-releasing hormone receptor (Homo sapiens)

>  <Observed Measurement>
0.625

$$$$
>  <Compound>
OC1(c2ccc(Cl)cc2)CCN(Cc2c[nH]c3ccccc23)CC1

>  <Assayed System>
Thyrotropin-releasing hormone receptor (Homo sapiens)

>  <Observed Measurement>
7.75

$$$$
>  <Compound>
O=C(O)C1=CCCN(CCON=C(c2ccccc2)c2ccccc2)C1

>  <Assayed System>
Thyrotropin-releasing hormone receptor (Homo sapiens)

>  <Observed Measurement>
-3

$$$$

The record that follows has no activation shown yet.
# input Would you kindly share the measured activation for COc1ccc(NC(=O)c2ccc(-c3ccc(-c4noc(C)n4)cc3C)cc2)cc1N1CCN(C)CC1 ?
# output 2.25
